- system under test: PKCη (Homo sapiens)
- Construct: purchased Signal Chem (Richmond, BC, Canada)
- Sequence (P24723 whole entry): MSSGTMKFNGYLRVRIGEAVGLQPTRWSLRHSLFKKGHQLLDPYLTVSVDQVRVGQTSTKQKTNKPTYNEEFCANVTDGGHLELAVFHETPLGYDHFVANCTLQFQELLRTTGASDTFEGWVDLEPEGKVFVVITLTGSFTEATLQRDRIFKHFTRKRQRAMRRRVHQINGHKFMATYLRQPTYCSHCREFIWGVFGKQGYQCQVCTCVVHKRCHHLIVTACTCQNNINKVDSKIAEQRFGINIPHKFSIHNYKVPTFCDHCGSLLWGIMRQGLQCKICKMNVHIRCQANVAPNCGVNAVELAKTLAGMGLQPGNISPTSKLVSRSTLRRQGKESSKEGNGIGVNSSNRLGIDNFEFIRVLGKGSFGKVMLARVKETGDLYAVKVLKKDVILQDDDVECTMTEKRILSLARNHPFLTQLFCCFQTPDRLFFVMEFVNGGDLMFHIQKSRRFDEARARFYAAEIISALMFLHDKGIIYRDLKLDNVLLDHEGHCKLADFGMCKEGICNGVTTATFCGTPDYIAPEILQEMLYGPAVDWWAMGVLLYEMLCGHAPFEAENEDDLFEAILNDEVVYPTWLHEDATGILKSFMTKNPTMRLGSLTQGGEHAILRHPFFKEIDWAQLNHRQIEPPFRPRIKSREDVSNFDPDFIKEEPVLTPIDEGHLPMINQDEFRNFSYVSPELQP
- test protocol: In-vitro kinase profiling, radioisotope screening assay (Signal Chem)
- Type: biochemical
- cond: 5 μM compound, 50 μM ATP, vs vehicle control; negative = inhibition
recorded endpoint: % activity change (%)
Give just the number in %; leave the unit off.

# example entries with known answers
[[record]]
compound = "CC1(C)C=Cc2c(O)cc(O)c(C(=O)/C=C/c3ccccc3)c2O1"
u = "%"
measurement = 19

[[record]]
compound = "Oc1cc(O)c(Cc2c(O)cc(O)cc2O)c(O)c1"
u = "%"
measurement = 7

[[record]]
compound = "CC(=O)c1c(O)c(C)c(O)c(Cc2c(O)c3c(c4c2OC(c2ccccc2)CC4=O)OC(C)(C)C=C3)c1O (stereo not shown)"
u = "%"
measurement = 15


*Q* What value of % activity change has been recorded for this entry: `CC(=O)c1c(O)c(C)c(O)c(Cc2c(O)c3c(c(C(=O)/C=C/c4ccccc4)c2O)OC(C)(C)C=C3)c1O`
*A* 12

====

- system under test: PKCβ (Homo sapiens)
- Construct: purchased Signal Chem (Richmond, BC, Canada)
- Sequence (P05771 whole entry): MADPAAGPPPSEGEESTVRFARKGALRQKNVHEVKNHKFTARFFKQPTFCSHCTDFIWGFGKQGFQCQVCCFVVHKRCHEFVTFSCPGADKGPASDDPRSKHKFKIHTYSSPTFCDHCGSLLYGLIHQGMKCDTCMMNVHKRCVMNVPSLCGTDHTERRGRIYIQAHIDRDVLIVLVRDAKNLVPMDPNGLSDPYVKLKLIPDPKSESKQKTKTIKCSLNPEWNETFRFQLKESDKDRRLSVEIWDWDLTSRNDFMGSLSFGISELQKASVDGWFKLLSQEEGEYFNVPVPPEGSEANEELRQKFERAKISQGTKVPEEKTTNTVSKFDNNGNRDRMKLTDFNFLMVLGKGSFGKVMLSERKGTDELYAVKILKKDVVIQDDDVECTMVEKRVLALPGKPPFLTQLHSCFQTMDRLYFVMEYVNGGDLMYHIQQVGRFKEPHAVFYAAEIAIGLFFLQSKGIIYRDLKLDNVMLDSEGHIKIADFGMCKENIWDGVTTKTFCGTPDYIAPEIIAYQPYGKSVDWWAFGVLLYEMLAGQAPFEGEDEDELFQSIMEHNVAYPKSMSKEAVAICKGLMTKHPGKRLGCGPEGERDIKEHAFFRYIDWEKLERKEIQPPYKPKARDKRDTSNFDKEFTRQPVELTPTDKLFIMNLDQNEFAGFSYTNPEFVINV
- test protocol: In-vitro kinase profiling, radioisotope screening assay (Signal Chem)
- Type: biochemical
- cond: 5 μM compound, 50 μM ATP, vs vehicle control; negative = inhibition
recorded endpoint: % activity change
Output should be the measured figure followed by the unit it is expressed in.

Field: example entries. Status: answers known.
[[record]]
compound = "Oc1cc(O)c(Cc2c(O)cc(O)cc2O)c(O)c1"
recorded_endpoint = "% activity change"
measurement = "3%"

[[record]]
compound = "CC(=O)c1c(O)c(C)c(O)c(Cc2c(O)c3c(c4c2OC(c2ccccc2)CC4=O)OC(C)(C)C=C3)c1O (stereo not shown)"
recorded_endpoint = "% activity change"
measurement = "1%"

[[record]]
compound = "CC(=O)c1c(O)c(C)c(O)c(Cc2c(O)c3c(c(C(=O)/C=C/c4ccccc4)c2O)OC(C)(C)C=C3)c1O"
recorded_endpoint = "% activity change"
measurement = "0%"


Below: the item to evaluate.
*Q* Give recorded % activity change with PKCβ (Homo sapiens) for the following compound: `CC1(C)C=Cc2c(O)cc(O)c(C(=O)/C=C/c3ccccc3)c2O1`
*A* 6%

====

- system under test: AKT1 (Homo sapiens)
- Construct: purchased Signal Chem (Richmond, BC, Canada)
- Sequence (P31749 whole entry): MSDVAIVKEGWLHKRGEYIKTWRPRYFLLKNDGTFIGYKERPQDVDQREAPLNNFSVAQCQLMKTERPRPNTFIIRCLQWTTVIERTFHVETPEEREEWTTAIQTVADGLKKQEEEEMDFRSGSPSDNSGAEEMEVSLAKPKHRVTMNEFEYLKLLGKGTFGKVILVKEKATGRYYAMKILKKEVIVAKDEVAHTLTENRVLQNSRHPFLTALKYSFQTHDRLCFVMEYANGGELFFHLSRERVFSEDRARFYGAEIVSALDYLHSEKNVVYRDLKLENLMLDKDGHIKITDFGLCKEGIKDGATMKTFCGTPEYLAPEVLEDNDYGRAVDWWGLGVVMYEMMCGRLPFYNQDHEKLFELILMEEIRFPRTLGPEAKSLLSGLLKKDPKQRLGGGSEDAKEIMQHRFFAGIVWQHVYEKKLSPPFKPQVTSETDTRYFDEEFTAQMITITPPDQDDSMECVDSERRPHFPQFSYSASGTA
- test protocol: In-vitro kinase profiling, radioisotope screening assay (Signal Chem)
- Type: biochemical
- cond: 5 μM compound, 50 μM ATP, vs vehicle control; negative = inhibition
recorded endpoint: % activity change (%)
Kindly answer with a numeric value in %, unit omitted.

// solved cases for % activity change follow
[[record]]
compound = "CC(=O)c1c(O)c(C)c(O)c(Cc2c(O)c3c(c4c2OC(c2ccccc2)CC4=O)OC(C)(C)C=C3)c1O (stereo not shown) [PK202]"
u = "%"
measurement = "−12"

[[record]]
compound = "Oc1cc(O)c(Cc2c(O)cc(O)cc2O)c(O)c1 [PK103]"
u = "%"
measurement = "−6"

[[record]]
compound = "CC(=O)c1c(O)c(C)c(O)c(Cc2c(O)c3c(c(C(=O)/C=C/c4ccccc4)c2O)OC(C)(C)C=C3)c1O [Rottlerin]"
u = "%"
measurement = "−14"


Consider the additional compound presented here.
*Q* Query: % activity change; subject: CC1(C)C=Cc2c(O)cc(O)c(C(=O)/C=C/c3ccccc3)c2O1 [PK302]
*A* −10
